Source: patent US20250250357A1

assayed.system: T1, human MSLN protein endogenously expressed on OVCAR3 tumor cells (human, UniProt Q13421 296-598)
T1 construct: whole, on cells; Endogenous target on OVCAR3 cells; kept apart from the recombinant full-length construct; also called mesothelin
T1 sequence (Q13421 other isoform, or with tags, fused parts or gaps): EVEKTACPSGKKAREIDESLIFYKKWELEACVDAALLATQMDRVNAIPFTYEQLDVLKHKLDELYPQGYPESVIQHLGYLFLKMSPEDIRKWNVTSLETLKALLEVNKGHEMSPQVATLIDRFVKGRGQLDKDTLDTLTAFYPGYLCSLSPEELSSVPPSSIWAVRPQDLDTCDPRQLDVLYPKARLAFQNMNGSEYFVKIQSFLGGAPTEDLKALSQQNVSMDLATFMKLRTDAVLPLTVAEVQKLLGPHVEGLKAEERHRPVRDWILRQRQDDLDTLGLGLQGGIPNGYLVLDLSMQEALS
protocol: FACS on OVCAR3 cells
measured.metric: Maximum mean fluorescence intensity
Just the number.

| binder | Maximum mean fluorescence intensity |
| --- | --- |
| S009-F4-127.10 (antibody, human IgG1, kappa, V domains shown, human-murine chimeric antibody, human IgG1/kappa constant regions) VH: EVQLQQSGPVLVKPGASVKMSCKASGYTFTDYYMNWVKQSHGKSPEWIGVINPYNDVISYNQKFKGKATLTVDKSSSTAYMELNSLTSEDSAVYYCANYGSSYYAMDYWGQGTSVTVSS VL: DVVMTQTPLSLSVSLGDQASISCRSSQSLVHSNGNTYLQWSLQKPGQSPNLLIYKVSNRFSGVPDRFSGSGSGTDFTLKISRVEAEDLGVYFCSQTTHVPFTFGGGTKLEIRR | 3360 |

Lab note: next binder to report on.
Query (binder): S009-F6-76.1 (antibody, human IgG1, kappa, V domains shown, human-murine chimeric antibody, human IgG1/kappa constant regions) VH: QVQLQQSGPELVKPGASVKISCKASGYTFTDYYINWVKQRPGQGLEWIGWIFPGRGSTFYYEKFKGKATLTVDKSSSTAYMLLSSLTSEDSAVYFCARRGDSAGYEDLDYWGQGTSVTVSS VL: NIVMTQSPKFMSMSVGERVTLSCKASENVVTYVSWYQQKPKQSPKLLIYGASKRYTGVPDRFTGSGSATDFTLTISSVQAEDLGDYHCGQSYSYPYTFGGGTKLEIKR ; field requested: Maximum mean fluorescence intensity
6810
